Kindly state pEC50 for each of the entries shown.
- experimentalTarget: PIK3CD (Human) (UniProt O00329)
- Sequence (O00329 whole entry, looked up): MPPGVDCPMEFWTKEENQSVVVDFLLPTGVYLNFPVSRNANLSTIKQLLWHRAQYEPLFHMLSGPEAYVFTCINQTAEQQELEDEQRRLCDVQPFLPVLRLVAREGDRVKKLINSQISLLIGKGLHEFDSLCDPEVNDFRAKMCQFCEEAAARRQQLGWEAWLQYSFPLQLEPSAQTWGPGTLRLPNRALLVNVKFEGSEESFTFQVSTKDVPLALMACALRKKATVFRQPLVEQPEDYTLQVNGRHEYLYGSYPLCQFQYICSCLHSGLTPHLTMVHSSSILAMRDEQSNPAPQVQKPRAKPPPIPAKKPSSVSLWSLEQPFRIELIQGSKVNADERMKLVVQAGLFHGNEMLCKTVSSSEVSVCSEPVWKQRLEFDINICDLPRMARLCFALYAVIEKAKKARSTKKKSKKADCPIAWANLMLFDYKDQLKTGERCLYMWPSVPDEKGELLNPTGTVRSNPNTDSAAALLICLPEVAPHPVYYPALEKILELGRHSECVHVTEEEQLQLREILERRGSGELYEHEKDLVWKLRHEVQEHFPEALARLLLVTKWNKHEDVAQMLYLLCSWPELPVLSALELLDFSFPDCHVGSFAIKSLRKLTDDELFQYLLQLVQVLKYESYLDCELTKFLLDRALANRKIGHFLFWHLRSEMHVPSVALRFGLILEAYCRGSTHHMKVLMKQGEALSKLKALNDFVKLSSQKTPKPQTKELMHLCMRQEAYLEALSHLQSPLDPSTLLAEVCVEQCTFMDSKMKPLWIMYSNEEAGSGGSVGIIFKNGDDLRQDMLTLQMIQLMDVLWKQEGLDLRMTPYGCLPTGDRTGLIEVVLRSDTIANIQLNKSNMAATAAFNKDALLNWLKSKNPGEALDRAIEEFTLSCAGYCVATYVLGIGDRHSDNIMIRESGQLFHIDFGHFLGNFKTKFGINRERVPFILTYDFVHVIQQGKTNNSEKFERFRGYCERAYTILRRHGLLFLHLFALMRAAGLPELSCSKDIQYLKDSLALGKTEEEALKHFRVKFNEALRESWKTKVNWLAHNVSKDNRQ
- assayDetails: Evaluation of PIK3CD inhibitors on Elastase Release in Human PMN Cells
// returns pEC50 (minus log10 of molar concentration), number only

query: Complete the entry with pEC50 for O=c1c2c(Cl)cccc2nc(CSc2ncnc3[nH]cnc23)n1-c1ccccc1F
result: 6.05

query: Return the recorded pEC50 value; entry: Cc1cccc2nc(Cn3cnc4c(N)ncnc43)n(-c3ccccc3F)c(=O)c12
result: 6.05

query: Retrieve pEC50 measured for Nc1ncnc2c1ncn2Cc1nc2cccc(F)c2c(=O)n1-c1ccccc1Cl and print it.
result: 5.37

query: Identify measured pEC50 corresponding to COc1ccccc1Cn1c(CSc2ncnc3[nH]cnc23)nc2ccccc2c1=O
result: 5.26

query: Answer with reported pEC50 of Cc1cccc2nc(Cn3cnc4c(N)ncnc43)n(-c3ccccc3C(C)C)c(=O)c12
result: 6.30

query: Please report pEC50 for the following molecule: O=c1c2ccccc2nc(CSc2ncnc3[nH]cnc23)n1N1CCOCC1
result: 5.30

query: State its pEC50: O=c1c2cc(O)ccc2nc(CSc2ncnc3[nH]cnc23)n1-c1ccccc1Cl
result: 5.54

query: Retrieve pEC50 measured for Cc1ccccc1-n1c(CSc2ncnc3[nH]cnc23)nc2cccc(Cl)c2c1=O and print it.
result: 6.52

query: Could you please provide reported pEC50 for Cc1cccc2nc(Cn3cnc4c(N)ncnc43)n(-c3ccccc3Cl)c(=O)c12 ? Thanks!
result: 6.40

query: In one line, give reported pEC50 of the entry Cc1cccc2nc(CSc3ncnc4[nH]cnc34)n(-c3ccccc3C(C)C)c(=O)c12 .
result: 6.52

* * *

Reported pIC50 values, PIK3CB (UniProt P42338).
Please report pIC50 as the negative decimal logarithm of the molar concentration, giving only the number.

query: Identify measured pIC50 obtained with PIK3CB (UniProt P42338) for Nc1ncnc2c1ncn2Cc1nc2cccc(F)c2c(=O)n1-c1ccccc1Cl .
Sequence (P42338 whole entry, looked up): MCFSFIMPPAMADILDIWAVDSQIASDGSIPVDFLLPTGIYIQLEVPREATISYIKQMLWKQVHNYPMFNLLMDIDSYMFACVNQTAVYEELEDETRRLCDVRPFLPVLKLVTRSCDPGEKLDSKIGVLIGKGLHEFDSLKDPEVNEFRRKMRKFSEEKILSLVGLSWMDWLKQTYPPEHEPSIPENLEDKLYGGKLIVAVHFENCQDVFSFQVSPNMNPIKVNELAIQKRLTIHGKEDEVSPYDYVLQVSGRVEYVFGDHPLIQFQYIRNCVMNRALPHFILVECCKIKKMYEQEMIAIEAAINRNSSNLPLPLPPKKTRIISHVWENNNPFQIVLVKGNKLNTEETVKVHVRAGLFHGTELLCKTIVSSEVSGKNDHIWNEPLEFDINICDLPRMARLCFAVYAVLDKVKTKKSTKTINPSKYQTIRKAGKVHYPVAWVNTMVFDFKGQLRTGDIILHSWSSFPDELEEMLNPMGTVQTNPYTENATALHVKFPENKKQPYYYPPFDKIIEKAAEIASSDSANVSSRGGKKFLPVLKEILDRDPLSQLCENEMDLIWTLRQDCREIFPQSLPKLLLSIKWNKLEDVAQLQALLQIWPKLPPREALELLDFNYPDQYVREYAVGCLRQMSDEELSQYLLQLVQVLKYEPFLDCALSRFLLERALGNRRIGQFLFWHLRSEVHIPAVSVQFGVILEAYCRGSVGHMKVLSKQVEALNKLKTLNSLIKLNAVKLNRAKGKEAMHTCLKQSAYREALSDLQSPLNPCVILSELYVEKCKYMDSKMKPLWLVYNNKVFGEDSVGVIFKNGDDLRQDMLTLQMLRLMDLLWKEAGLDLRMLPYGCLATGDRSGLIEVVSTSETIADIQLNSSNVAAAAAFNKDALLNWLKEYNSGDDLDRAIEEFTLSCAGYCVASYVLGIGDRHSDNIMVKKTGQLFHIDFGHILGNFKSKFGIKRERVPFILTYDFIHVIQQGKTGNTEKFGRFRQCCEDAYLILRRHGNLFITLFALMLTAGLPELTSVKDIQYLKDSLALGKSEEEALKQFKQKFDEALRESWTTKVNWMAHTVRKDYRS
result: 4.34

query: Provide pIC50, tested on PIK3CB (UniProt P42338), for O=c1c2cc(F)ccc2nc(CSc2ncnc3[nH]cnc23)n1-c1ccccc1Cl .
result: 4.89

query: Tell me its pIC50 on PIK3CB (UniProt P42338): O=c1c2ccccc2nc(CSc2ncnc3[nH]cnc23)n1-c1ccncc1
result: 4.60

query: Write down the reported pIC50 (system: PIK3CB (UniProt P42338)) of O=c1c2ccc(F)cc2nc(CSc2ncnc3[nH]cnc23)n1-c1ccccc1Cl
result: 3.96

query: Provide PIK3CB (UniProt P42338) pIC50 reading for Nc1ncnc2c1ncn2Cc1nc2c(Cl)cccc2c(=O)n1-c1ccccc1Cl .
result: 4.17

query: Tell me pIC50 of O=c1c2cccc(Cl)c2nc(CSc2ncnc3[nH]cnc23)n1-c1ccccc1Cl when tested on PIK3CB (UniProt P42338).
result: 3.96

query: // fetch pIC50 for COc1ccccc1-n1c(CSc2ncnc3[nH]cnc23)nc2ccccc2c1=O ; system: PIK3CB (UniProt P42338)
result: 4.02

query: # return pIC50 of O=c1c2ccccc2nc(CSc2ncnc3[nH]cnc23)n1Cc1ccccc1 (system: PIK3CB (UniProt P42338))
result: 4.10

* * *

Field: IC50. Provide a value for each of the molecules that follow.
- experimentalTarget: UniProt:P42336
- Sequence (P42336 whole entry, looked up): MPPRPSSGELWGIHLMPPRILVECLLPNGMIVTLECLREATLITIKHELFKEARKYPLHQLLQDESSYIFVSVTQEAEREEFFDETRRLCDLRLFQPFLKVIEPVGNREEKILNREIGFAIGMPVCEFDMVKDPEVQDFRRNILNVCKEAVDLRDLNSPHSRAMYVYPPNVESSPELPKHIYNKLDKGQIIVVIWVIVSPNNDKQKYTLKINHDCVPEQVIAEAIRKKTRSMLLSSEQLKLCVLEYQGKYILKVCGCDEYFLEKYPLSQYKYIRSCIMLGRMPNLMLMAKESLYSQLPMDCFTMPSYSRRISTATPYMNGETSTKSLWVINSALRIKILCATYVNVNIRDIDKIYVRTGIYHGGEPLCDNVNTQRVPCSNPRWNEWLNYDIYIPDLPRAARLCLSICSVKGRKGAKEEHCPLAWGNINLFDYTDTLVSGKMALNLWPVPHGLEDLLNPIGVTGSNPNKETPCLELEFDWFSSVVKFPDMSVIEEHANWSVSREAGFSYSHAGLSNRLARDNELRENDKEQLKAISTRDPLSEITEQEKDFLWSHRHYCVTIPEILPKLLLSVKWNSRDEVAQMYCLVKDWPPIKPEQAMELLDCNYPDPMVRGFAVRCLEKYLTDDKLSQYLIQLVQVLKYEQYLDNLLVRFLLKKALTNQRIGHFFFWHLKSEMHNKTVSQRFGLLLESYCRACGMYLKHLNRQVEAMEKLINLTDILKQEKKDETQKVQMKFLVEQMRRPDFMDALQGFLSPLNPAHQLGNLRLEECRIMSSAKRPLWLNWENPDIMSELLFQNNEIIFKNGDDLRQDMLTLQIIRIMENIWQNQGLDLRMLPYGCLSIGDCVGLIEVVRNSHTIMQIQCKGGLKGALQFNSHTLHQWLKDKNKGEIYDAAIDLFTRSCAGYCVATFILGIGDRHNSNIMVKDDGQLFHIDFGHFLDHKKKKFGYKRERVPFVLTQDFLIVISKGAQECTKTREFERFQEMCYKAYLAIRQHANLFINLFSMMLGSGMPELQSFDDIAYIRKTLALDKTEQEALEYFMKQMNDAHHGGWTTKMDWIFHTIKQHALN
Numeric only. Scale: µM

query: Quick one: give measured IC50 for O=c1c2ccccc2nc(CSc2ncnc3[nH]ncc23)n1-c1ccccc1Cl
result: 105

query: Tell me its IC50 given Nc1ncnc2c1ncn2Cc1nc2cc(F)ccc2c(=O)n1-c1ccccc1Cl as the entry.
result: 92

query: // fetch IC50 given entry O=c1c2cc(O)ccc2nc(CSc2ncnc3[nH]cnc23)n1-c1ccccc1Cl
result: 100

query: // Input: O=c1c2cccc(Cl)c2nc(CSc2ncnc3[nH]cnc23)n1-c1ccccc1Cl . Output its IC50 only.
result: 100

query: Please report the measured IC50 for Cc1cccc2nc(Cn3cnc4c(N)ncnc43)n(-c3ccccc3C(C)C)c(=O)c12
result: 49

query: Report IC50 for O=c1c2ccccc2nc(CSc2ncnc3[nH]cnc23)n1-c1ccc(Cl)cc1
result: 0.7

query: Specify measured IC50 for Cc1cccc2nc(CSc3ncnc4[nH]cnc34)n(-c3c(Cl)cccc3Cl)c(=O)c12 .
result: 19

query: // fetch IC50 given entry Cc1cccc2nc(CSc3ncnc4[nH]cnc34)n(-c3ccccc3F)c(=O)c12
result: 74

query: Specify reported IC50 for the molecule shown: Cc1ccccc1-n1c(CSc2ncnc3[nH]cnc23)nc2cccc(Cl)c2c1=O
result: 48

Value source: the Kinase Knowledgebase extract (Sharma et al. 2016)
